In this section, each of the molecules is paired with its reported growth.
- System: NCI-H460 lung
- experiment.summary: NCI-60 one-dose screen, 48 h (100 = growth as untreated, 0 = no growth, -100 = all killed)
- conditions.used: 10 µM unless noted
This is part of a sample that, as a whole, favours compounds with a hit. Of some 83,000 tested, about 20% had one in any assay. The source made the active and inactive calls. How the source made its calls: active means growth percent below 10; inactive means the rest.
measured.attribute: growth

1. CN1CCN(c2nc(-c3csc(-c4ccccc4)n3)cc3ccccc23)CC1 -26.1% (active)
2. CC1=NC2=NC(=O)/C(=C3/N=C(C)C=C(c4ccccc4)N3N)NN2C(c2ccccc2)=C1 111% (inactive)
3. O=C(CN1CCN(c2cc(=O)[nH]c3ccc(F)cc23)CC1)Nc1ccc(Cl)cc1 41.1% (inactive)
4. O=C(NCCn1ccnc1)c1ccc(-c2nc3ccc4[nH]ncc4c3c3c2CCCC3)cc1 59.9% (inactive)
5. COc1ccccc1C(=O)Nc1cccc2c1C(=O)C(=O)C=C2 103% (inactive)

meta.source: PubChem BioAssay (NCI)
